This collection of values is drawn from BigSolDB 2.1.

Conditions: in n-propanol, 323.15 K
measured.quantity: solubility (mole fraction)
One number for each entry.

## Input Supply recorded solubility (mole fraction) for `COC(=O)[C@H](N)c1ccc(O)cc1` here.
## Output 0.00787

====

Conditions: in n-pentanol, 308.14 K
measured.quantity: solubility (mole fraction)
Answers are plain numbers.

## Input Specify solubility (mole fraction) for `COC(=O)[C@H](N)c1ccc(O)cc1` and stop.
## Output 0.00177

====

Conditions: in n-propyl acetate, 288.14 K
measured.quantity: solubility (mole fraction)
Give bare numbers.

## Input Identify solubility (mole fraction) associated with the compound `COC(=O)[C@H](N)c1ccc(O)cc1`
## Output 0.000135
